Tested on: U251 CNS
Assay: NCI-60 one-dose screen, 48 h
Settings: 10 µM unless noted
Method: Growth inhibition of the U251 human tumor cell line is measured as a screen for anti-cancer activity. Cells are grown in 96 well plates and exposed to the test compound for 48 hours. Compounds are tested at a single concentration, which is 10^-5 M for most compounds. The reported endpoint is percent growth (GI% or GIPRCNT), where numbers from 0 - 100% represent growth inhibition, and numbers from -100% - 0 represent cell death. For example, a value of 40 represents 60% growth inhibition. […]
About 83,000 compounds went through this panel and 20% of them were active in at least one assay; those are over-represented in the sample as a whole. Calls of active or inactive are those of the source. How the source made its calls: active means growth percent below 10; inactive means the rest.
Your reply should match one of these outcome classes. 1 (yes) (active), 0 (no) (inactive)

Completed entries (count: 3):
smiles_entry=CCCCCCCCc1ccc(C(=O)Nc2ccc(C)cc2C(=O)O)cc1 class_assignment="0 (no)"
smiles_entry=S=C(Nc1ccccc1)Nc1ccc(OCc2nc3ccc(Cl)cc3[nH]2)cc1 class_assignment="0 (no)"
smiles_entry=N#Cc1ccc(C(=O)CSc2nc3c(c(Nc4ccc(S(N)(=O)=O)cc4)n2)CCC3)cc1 class_assignment="1 (yes)"

Prompt: Just curious, what result did `CN(C)CCCNC(=S)Nc1ccc(/C=C/c2ccc(Cl)cc2)cc1` get here?
Completion: 1 (yes)

Prompt: Status in this test for `O=C(CSc1nnc(-c2ccc(-c3nc4ccccc4[nH]3)cc2)o1)Nc1ccccc1` ?
Completion: 1 (yes)

* * *

test system: RPMI-8226 leukemia; experiment: NCI-60 one-dose screen, 48 h; details: 10 µM unless noted
The panel holds about 83,000 compounds, 20% with a hit somewhere; the sample as a whole holds those more often. The source made the active and inactive calls. Rule for the calls: active = growth percent below 10; inactive = the rest.
Permitted responses: active, inactive

// below: answered molecules
molecule="Cc1ccc(C2CC(c3ccc(S(=O)(=O)NCCNc4nc(N(C)C)nc(N5CCOCC5)n4)cc3)=Nc3c(N)nc(N)nc3N2)cc1 (stereo not given)" class_assignment=inactive
molecule=COc1ccc2oc(=O)c(-c3csc(N/N=C(\C)c4cc(OC)c(OC)c(OC)c4)n3)cc2c1 class_assignment=inactive
molecule=O=C(CSc1nnc(-c2ccc(-c3nc4ccccc4[nH]3)cc2)o1)Nc1ccc(Cl)cc1 class_assignment=active
molecule=CS(=O)(=O)Nc1cccc(-n2cnc3cc(-c4ccc(O)cc4)ccc32)c1 class_assignment=inactive

Prompt: Could you please tell me the result logged for `COC(=O)CSC1=C(C)C(=O)C(OC)=C(OC)C1=O` in this assay?
Completion: inactive

Prompt: Test call for this molecule, please: `COC(=O)c1cc(C(=O)C(F)(F)F)n2c3ccccc3c3ccccc3c12`
Completion: inactive

Prompt: What was the test verdict on `COc1ccc(NC2=C(I)C(=O)C(C)=C(C)C2=O)cc1` ?
Completion: active

Prompt: Hi, do you know how `Clc1ccc(-c2nc3c4c(-c5ccccc5)c(-c5ccccc5)n(Cc5ccccc5)c4ncn3n2)cc1` came out in this test?
Completion: active

Prompt: Check the results log: what was the call for `CC(C)CN1C(=O)/C(=C\C(=O)c2cc3ccccc3oc2=O)c2ccccc21` ?
Completion: inactive

Prompt: Just curious, what result did `O=C(N/N=C/c1c[nH]c2ccccc12)Nc1ccc(F)c(Cl)c1` get here?
Completion: inactive

* * *

A collection of molecules and their measured growth
tested on: OVCAR-4 ovarian; experiment: NCI-60 one-dose screen, 48 h (100 = growth as untreated, 0 = no growth, -100 = all killed); conditions: 10 µM unless noted
Compounds without any hit were thinned out: in the full panel of roughly 83,000, 20% have a hit.
Lab book: enter the figure in %, no units written.

// solved cases for growth follow
smiles_entry=O=C(CSc1nc2sc3c(c2c(=O)n1-c1ccc(Cl)cc1)CCCC3)N/N=C/C=C/c1ccccc1 attribute_measured=growth readout_number=-31
smiles_entry=COc1cccc(C(N)=Nc2ccc(OCCCCCCCCn3cncn3)cc2)c1 attribute_measured=growth readout_number=55.5
smiles_entry=C#CCN(C)CCCOc1ccc(N(CC)C(=O)c2cc(C(C)C)c(O)cc2O)cc1Cl attribute_measured=growth readout_number=26.1

For `C/C(=N\Nc1ccc(S(N)(=O)=O)cc1)c1cnn(-c2cc(=O)[nH]c3ccc(Br)cc23)c1C` on OVCAR-4 ovarian, measured growth was 67.7

The molecule `Nc1cc(-c2c[nH]c3ccc(F)cc23)nc2cc(-c3c[nH]c4ccccc34)nn12` , when measured on OVCAR-4 ovarian, yielded growth of 47.8

* * *

test system: HOP-92 NSCLC; assay: NCI-60 one-dose screen, 48 h (100 = growth as untreated, 0 = no growth, -100 = all killed); details: 10 µM unless noted
The panel holds about 83,000 compounds, 20% with a hit somewhere; the sample as a whole holds those more often.
Note to self: values exactly at 30% are label 1. So growth at or above 30% is label 1, below is label 0.

molecule=Clc1ccc(-c2nc3ccc(-c4nnc(SCc5ccccc5)o4)cc3[nH]2)cc1 target_of_assay="HOP-92 NSCLC" class_assignment="label 1"
molecule=CCCCCCCCc1ccc(C(=O)Nc2ccc(C)cc2C(=O)O)cc1 target_of_assay="HOP-92 NSCLC" class_assignment="label 0"
molecule=Nc1cc(-c2c[nH]c3ccc(Cl)cc23)nc2cc(-c3c[nH]c4ccccc34)nn12 target_of_assay="HOP-92 NSCLC" class_assignment="label 0"
molecule=Cc1nn(-c2ccccc2)c2nc(C)n(C(=O)N/N=C/c3cccc([N+](=O)[O-])c3)c(=O)c12 target_of_assay="HOP-92 NSCLC" class_assignment="label 1"
molecule=COc1c(B(O)O)cccc1-c1nc2ccc3cn[nH]c3c2c2c1CCCC2 target_of_assay="HOP-92 NSCLC" class_assignment="label 0"

Please find the next molecule below.
Prompt: Form field: growth at least 30%? Entry: `Cc1cc(Cl)ccc1NC(=O)Nc1ccc(-c2ccc3c(c2)NC(=O)/C3=C\c2ccc[nH]2)cc1`
Completion: label 1

* * *

test system: UO-31 renal; experiment: NCI-60 one-dose screen, 48 h (100 = growth as untreated, 0 = no growth, -100 = all killed); settings: 10 µM unless noted
Compounds without any hit were thinned out: in the full panel of roughly 83,000, 20% have a hit.
Kindly apply the following: 1 if growth is less than -20%, 0 in every other case.

Below, 2 compounds whose answers are already recorded.
compound=COc1ccc2[nH]c(=O)c(CSc3ccccc3Nc3nccc(-c4ccc(Cl)cc4)n3)cc2c1 target_of_assay="UO-31 renal" class_assignment=0
compound=COc1ccc(N=Nc2c(N)nn3c(-c4ccc([N+](=O)[O-])cc4)ccnc23)cc1 target_of_assay="UO-31 renal" class_assignment=0

Prompt: Dear colleague, could you confirm whether growth of `CC(C)(C)OC(=O)N1CCC2(CC1)Oc1ccccc1[C@H]1CC(c3ccc(Br)cc3)=NN12` falls below -20%? Thanks.
Completion: 0

Prompt: Does the reported growth of `COc1ccc(-n2c(NC(=O)N3CCN(C)CC3)c(C#N)c3ccccc32)cc1` stay below -20%?
Completion: 0

Prompt: Problem: For the compound O=C1CCC(N2C(=O)c3cccc(NCCCCCC(=O)N4CCN(c5ccc6nc7c(nc6c5C(F)(F)F)C(=O)c5ncccc5C7=O)CC4)c3C2=O)C(=O)N1 (centres undefined) , is growth under -20%?
Completion: 1

Prompt: growth strictly < -20% for this compound? CC1=C(C(=O)OCc2ccccc2)C(c2cccc3ccccc23)n2c(nc3ccccc32)N1 (centres undefined)
Completion: 0

Prompt: Lab log: compare recorded growth with -20%; is it strictly lower for `O=C(c1cc2cc(OCCCN3CCC3)ccc2[nH]1)N1C[C@@H](CCl)c2c1cc(OCc1ccccc1)c1ccccc21` ?
Completion: 1

Prompt: Does this compound meet the criterion growth < -20%? `CCCn1c(NC(=O)c2cccc(C(N)=O)c2)nc2ccc(CN3CCCCC3)cc21`
Completion: 0

Prompt: Lab note: confirm whether the reported growth for this compound is below -20%, equality not counting. compound: `CN(C)c1nc(NCCNS(=O)(=O)c2ccc(C(=O)/C=C/c3ccc(Cl)cc3)cc2)nc(N2CCOCC2)n1`
Completion: 1

* * *

Measured growth by item
Tested on: COLO 205 colon
Experiment: NCI-60 one-dose screen, 48 h (100 = growth as untreated, 0 = no growth, -100 = all killed)
Settings: 10 µM unless noted
Method: Cells are grown in 96 well plates and exposed to the test compound for 48 hours. Compounds are tested at a single concentration, which is 10^-5 M for most compounds. The reported endpoint is percent growth (GI% or GIPRCNT), where numbers from 0 - 100% represent growth inhibition, and numbers from -100% - 0 represent cell death. For example, a value of 40 represents 60% growth inhibition. A value of 0 means no net growth occurred over the course of the experiment. […]
About 83,000 compounds went through this panel and 20% of them were active in at least one assay; those are over-represented in the sample as a whole.
Just the number in %, nothing appended.

Below: 5 compounds and their reported growth.
compound="O=C(c1ccc(Cl)cc1)C1[C@H](c2ccccc2Cl)[C@@H](c2ccccc2)NC12C(=O)Nc1ccc(Cl)cc12 (some centres undefined)" attribute_measured=growth units_text=% readout_number=-91.4
compound=FC(F)(F)c1cc2c(Cl)ncnc2n1CCC1CCOCC1 attribute_measured=growth units_text=% readout_number=71.5
compound="CCN(C(=O)CN1C(=O)/C(=C/c2ccco2)SC1=S)C1CCS(=O)(=O)C1 (centres undefined)" attribute_measured=growth units_text=% readout_number=120
compound=CN1CCc2c(sc3ncnc(N/N=C/c4cccc(Cl)c4Cl)c23)C1 attribute_measured=growth units_text=% readout_number=-80.3
compound=COC(=O)c1cc(C(C)=O)n2c3ccccc3c3ccccc3c12 attribute_measured=growth units_text=% readout_number=108

Given item `COc1cc(CNC(=O)C[C@H](C)CCC=C(C)C)ccc1OCc1cn(-c2cccc(C(F)(F)F)c2)nn1` , the value recorded as its growth is 74.2

# growth (compound: COc1cc(C2CC(c3ccc(F)cc3)=Nc3c(N)nc(N)nc3N2)ccc1Oc1nc(Nc2ccc(F)cc2)nc(N(C)C)n1 (centres undefined) ) is 56.2

Recorded result, `CS(=O)(=O)Nc1cccc(-n2cnc3cc(-c4ccc(O)cc4)ccc32)c1` , growth: 31.5

GET /value?item= `O=C(NN1C(=O)/C(=C/C=C/c2ccc([N+](=O)[O-])o2)SC1=S)c1ccc(O)cc1` &field=growth returns -94.8

Per the record, `O=C(CSc1nnc(-c2ccc(-c3nc4ccccc4[nH]3)cc2)o1)Nc1ccc(Cl)cc1` has growth of 61.7

Measured growth of `Cc1ccc2c(c1)/C(=C/C(=O)c1cc3ccccc3oc1=O)C(=O)N2` : 30.4

These measurements were taken from PubChem BioAssay (NCI).
